Answer each item with its documented normalized RNA/DNA level with ligand (log10).
B1: library; a variant is named by its letters at N, in order (parent)
chain: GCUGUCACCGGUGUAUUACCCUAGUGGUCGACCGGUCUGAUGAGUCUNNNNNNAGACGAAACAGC

variants of: B1; experiment: normalized RNA/DNA level with ligand (relative to sTRSVctl = 100) (log10 (% of sTRSVctl)); ligand: hypoxanthine (xanthine aptamer); higher = less ribozyme self-cleavage, higher mRNA level; details: ligand concentration (+) RNA-Seq: 5 mM, HEK293T, reporter: mCherry (pCS4076), ligand present: yes

In the examples that follow, each entry is paired with its recorded normalized RNA/DNA level with ligand (log10).
{"columns": ["Variant name", "Result"],
 "data": [
  ["UGCAAG", 1.85],
  ["CUGUUG", 1.96],
  ["CCCGCG", 1.9]
]}

Dear colleague, could you send me normalized RNA/DNA level with ligand (log10) for each of the items below? Thanks.
1. UGGGUC
2. CACGGA
3. UGGCAG
4. UCCGGG
5. GGUUGC
6. CGUCGC

Reply |
1.98
1.91
1.91
1.98
1.92
1.9

Give me normalized RNA/DNA level with ligand (log10) for each of these variants, listed below.
1. GGGCAA
2. UGUAAC
3. GGCCAC
4. AUGCAU

Reply |
1.96
1.91
2
1.87
